Test system: 926638-142-R-J1-PDC complex spheroid viability;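 note: spheroids exposed to drugs for one week before readout; percent viability relative to DMSO vehicle control wells set as 100%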
Assay: Anticancer human tumor 926638-142-R-J1-PDC patient-derived endometrial carcinoma cell line growth inhibition [POLQ]
Conditions: second compound 10 µM; first compound 0.316 µM; active compounds read low
property: viability, T/C (%)
The reply should be a number in %, with the unit left off.

Examples with answers:
- C=CCn1c(=O)c2cnc(Nc3ccc(N4CCN(C)CC4)cc3)nc2n1-c1cccc(C(C)(C)O)n1 + COC1C(OC(N)=O)C(O)C(Oc2ccc3c(O)c(NC(=O)c4ccc(O)c(CC=C(C)C)c4)c(=O)oc3c2C)OC1(C)C: 56.6
- CC1COCCN1c1cc(-c2ccnn2C)c2ccnc(-c3ccn[nH]3)c2n1 (stereo not drawn) + Cc1cccc(N(C)C(=O)C2C(O)CCN2c2nc(C)cc(C(F)(F)F)c2C#N)c1: 50.2

Please fill in: viability, T/C reported for O=C(c1cc(Cc2n[nH]c(=O)c3ccccc23)ccc1F)N1CCN(C(=O)C2CC2)CC1 + Cc1cccc(N(C)C(=O)C2C(O)CCN2c2nc(C)cc(C(F)(F)F)c2C#N)c1 = 78.9

Cited source: PubChem BioAssay AID1963826
